system: UniProt P02766
assay: Fluorescence polarization (FP) binding assay, ligands to TTR in buffer
recorded.conditions: log [nM] inhibitor 1.893
Please go through the items and note down their % Fluorescence polarization (mean).
Unit % implied. Number only.

Answer with the recorded % Fluorescence polarization (mean) for the molecule listed here: Cc1n[nH]c(C)c1CCCOc1cc(OCCCCCCN)cc(C(=O)O)c1 [Compound 1]
93.660

Answer with the recorded % Fluorescence polarization (mean) for the molecule listed here: C=CCN1CC[C@]23c4c5ccc(O)c4O[C@H]2[C@@H](OCc2cn(CCOCCOCCNCCCCCCOc4cc(OCCCc6c(C)n[nH]c6C)cc(C(=O)O)c4)nn2)CC[C@@]3(O)[C@H]1C5 [AG10-L1-Nal]
101.210

Answer with the recorded % Fluorescence polarization (mean) for the molecule listed here: C=CCN1CC[C@]23c4c5ccc(O)c4O[C@H]2[C@@H](OCc2cn(CCNCCCCCCOc4cc(OCCCc6c(C)n[nH]c6C)cc(C(=O)O)c4)nn2)CC[C@@]3(O)[C@H]1C5 [AG10-L2-Nal]
103.770

Answer with the recorded % Fluorescence polarization (mean) for the molecule listed here: COc1ccc2c3c1O[C@H]1[C@@H](OCc4cn(CCNCCCCCCOc5cc(OCCCc6c(C)n[nH]c6C)cc(C(=O)O)c5)nn4)CC[C@@]4(O)[C@@H](C2)N(C)CC[C@]314 [AG10-L2-Oxy]
99.420

###

assay: in vivo
recorded.conditions: male, Sprague Dawley, rat, sc, 15.9 μmole/kg, Concentration, subcutaneous 15.9 μmole/kg, time 24 h, individual animals
readout.kind: concentration at 24 h (nM)
Unit nM implied. Number only.

Answer with the recorded concentration at 24 h for the compound listed here: COc1ccc2c3c1O[C@H]1[C@@H](OCc4cn(CCNCCCCCCOc5cc(OCCCc6c(C)n[nH]c6C)cc(C(=O)O)c5)nn4)CC[C@@]4(O)[C@@H](C2)N(C)CC[C@]314
18.7

###

system: human mu-opioid receptors (Homo sapiens)
Sequence (P35372 whole entry): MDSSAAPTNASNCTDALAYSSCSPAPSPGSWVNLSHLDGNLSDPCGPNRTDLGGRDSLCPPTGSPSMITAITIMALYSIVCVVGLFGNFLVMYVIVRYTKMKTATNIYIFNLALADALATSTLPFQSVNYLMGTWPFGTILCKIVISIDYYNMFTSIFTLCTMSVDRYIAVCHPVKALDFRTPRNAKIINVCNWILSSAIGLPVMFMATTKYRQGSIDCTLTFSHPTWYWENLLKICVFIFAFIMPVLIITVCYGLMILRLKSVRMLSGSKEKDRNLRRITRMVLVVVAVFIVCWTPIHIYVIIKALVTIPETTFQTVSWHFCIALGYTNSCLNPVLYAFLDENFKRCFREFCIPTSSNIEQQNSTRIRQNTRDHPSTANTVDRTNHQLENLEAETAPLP
assay: biochemical
Assay type: binding
recorded.conditions: binding affinity to mu-opioid receptor (Ki)
Please go through the items and note down their Ki.
Unit nM implied. Number only.

Answer with the recorded Ki for the compound listed here: C=CCN1CC[C@]23c4c5ccc(O)c4O[C@H]2[C@@H](OCc2cn(CCOCCOCCNCCCCCCOc4cc(OCCCc6c(C)n[nH]c6C)cc(C(=O)O)c4)nn2)CC[C@@]3(O)[C@H]1C5 [AG10-L1-Nal]
0.81

Answer with the recorded Ki for the compound listed here: COc1ccc2c3c1O[C@H]1[C@@H](OCc4cn(CCNCCCCCCOc5cc(OCCCc6c(C)n[nH]c6C)cc(C(=O)O)c5)nn4)CC[C@@]4(O)[C@@H](C2)N(C)CC[C@]314 [AG10-L2-Oxy]
13

Answer with the recorded Ki for the compound listed here: C=CCN1CC[C@]23c4c5ccc(O)c4O[C@H]2[C@@H](OCc2cn(CCNCCCCCCOc4cc(OCCCc6c(C)n[nH]c6C)cc(C(=O)O)c4)nn2)CC[C@@]3(O)[C@H]1C5 [AG10-L2-Nal]
0.35

###

assay: in vivo
recorded.conditions: male, Sprague Dawley, rat, sc, 15.9 μmole/kg, Concentration, subcutaneous 15.9 μmole/kg, time 0.75 h, individual animals
readout.kind: concentration at 0.75 h (µM)
Unit µM implied. Number only.

Answer with the recorded concentration at 0.75 h for the molecule listed here: COc1ccc2c3c1O[C@H]1[C@@H](OCc4cn(CCNCCCCCCOc5cc(OCCCc6c(C)n[nH]c6C)cc(C(=O)O)c5)nn4)CC[C@@]4(O)[C@@H](C2)N(C)CC[C@]314
4.8
